# ASSAY_METHOD_TEXT: In vitro cytotoxicity, free drugs on Colo-853
# Type: cell-based
# CONDITION_INFO: free drug; read-out: In vitro IC50 Colo-853 Colon Cancer
Starred links: 1 amine or outer side, 2 acyl side, 3 side chain; linkers in the order of their positions; H or OH if unused. Non-standard residues stand in square brackets, D forms with d. Residues, ends and D or L forms follow the SMILES beside them. *: point of attachment. X4 = CC(C)[C@@H](C(=O)[*:2])N(CCCCN(C)C(=O)OC(C)(C)C)[*:1]; Dolaproine = CO[C@@H]([C@@H]1CCCN1)[C@@H](C)C(=O)O; X2 = CC(C)[C@@H](C(=O)[*:2])N(C)CCCCCN(C)[*:1]; X3 = CC(C)[C@@H](C(=O)[*:2])N(C)CCCCN(C)[*:1]; X5 = CC(C)[C@@H](C(=O)[*:2])N(C)CCCN(C)[*:1]; X7 = CC(C)[C@@H](C(=O)[*:2])N(C)CCN(C)[*:1]; Dil = CC[C@H](C)[C@H](NC)[C@@H](CC(=O)O)OC; X6 = CC(C)[C@@H](C(=O)[*:2])N(C)CCCN[*:1]; X1 = C[C@@H](N*)[C@@H](O)c1ccccc1; NMeV = CN[C@H](C(=O)O)C(C)C; Boc = CC(C)(C)OC(=O)*
Reported IC50 values follow for various compounds
Lab book: enter the figure in nM, no units written.

Answered cases to consult:
COMPOUND: CC[C@H](C)[C@@H]([C@@H](CC(=O)N1CCC[C@H]1[C@H](OC)[C@@H](C)C(=O)N[C@H](C)[C@@H](O)c1ccccc1)OC)N(C)C(=O)[C@@H](NC(=O)[C@@H](NC)C(C)C)C(C)C [Compound 3, Monomethyl auristatin E, reference compound] (H-[NMeV]V[Dil][Dolaproine]-X1)
IC50, nM: 0.1

COMPOUND: CC[C@H](C)[C@@H]([C@@H](CC(=O)N1CCC[C@H]1[C@H](OC)[C@@H](C)C(=O)N[C@@H](Cc1ccccc1)C(=O)O)OC)N(C)C(=O)[C@@H](NC(=O)[C@H](C(C)C)N(C)CCCCN(C)C(=O)OC(C)(C)C)C(C)C [Compound 16, (Boc-N-methyl)-butyl-AF] (Boc-[X3]V[Dil][Dolaproine]F-OH)
IC50, nM: 6.2

COMPOUND: CC[C@H](C)[C@@H]([C@@H](CC(=O)N1CCC[C@H]1[C@H](OC)[C@@H](C)C(=O)N[C@@H](Cc1ccccc1)C(=O)O)OC)N(C)C(=O)[C@@H](NC(=O)[C@H](C(C)C)N(C)CCN(C)C(=O)OC(C)(C)C)C(C)C [Compound 24, Boc-(N-methyl-ethyl)-AF] (Boc-[X7]V[Dil][Dolaproine]F-OH)
IC50, nM: 19.6

COMPOUND: CC[C@H](C)[C@@H]([C@@H](CC(=O)N1CCC[C@H]1[C@H](OC)[C@@H](C)C(=O)N[C@@H](Cc1ccccc1)C(=O)O)OC)N(C)C(=O)[C@@H](NC(=O)[C@H](C(C)C)N(C)CCCN(C)C(=O)OC(C)(C)C)C(C)C [Compound 25, (Boc-N-methyl)-propyl-AF] (Boc-[X5]V[Dil][Dolaproine]F-OH)
IC50, nM: 15.1

COMPOUND: CC[C@H](C)[C@@H]([C@@H](CC(=O)N1CCC[C@H]1[C@H](OC)[C@@H](C)C(=O)N[C@@H](Cc1ccccc1)C(=O)O)OC)N(C)C(=O)[C@@H](NC(=O)[C@@H](NC)C(C)C)C(C)C [Compound 2, Monomethyl auristatin F, reference compound] (H-[NMeV]V[Dil][Dolaproine]F-OH)
IC50, nM: 90.2

# input Look up IC50 for this compound: CC[C@H](C)[C@@H]([C@@H](CC(=O)N1CCC[C@H]1[C@H](OC)[C@@H](C)C(=O)N[C@@H](Cc1ccccc1)C(=O)O)OC)N(C)C(=O)[C@@H](NC(=O)[C@H](C(C)C)N(C)CCCCCN(C)C(=O)OC(C)(C)C)C(C)C [Compound 26, (Boc-N-methyl)-pentyl-AF] (Boc-[X2]V[Dil][Dolaproine]F-OH)
# output 12.5

# input Look up IC50 for this compound: CC[C@H](C)[C@@H]([C@@H](CC(=O)N1CCC[C@H]1[C@H](OC)[C@@H](C)C(=O)N[C@@H](Cc1ccccc1)C(=O)O)OC)N(C)C(=O)[C@@H](NC(=O)[C@H](C(C)C)N(C)CCCNC(=O)OC(C)(C)C)C(C)C [Compound 18, N-Boc-propyl-AF] (Boc-[X6]V[Dil][Dolaproine]F-OH)
# output 17.5

# input Look up IC50 for this compound: CC[C@H](C)[C@@H]([C@@H](CC(=O)N1CCC[C@H]1[C@H](OC)[C@@H](C)C(=O)N[C@@H](Cc1ccccc1)C(=O)O)OC)N(C)C(=O)[C@@H](NC(=O)[C@@H](NCCCCN(C)C(=O)OC(C)(C)C)C(C)C)C(C)C [Compound 17, (Boc-N-methyl)-butyl-AF] (H-[X4]V[Dil][Dolaproine]F-OH)
# output 66.2
